meta.source: the supplement of paper PMC4466140

Reported SPOT peptide array binding signal intensity by item:
# Tgt: CaLsb4
# Procedure Summary: SPOT peptide array binding signal intensity (averaged, normalized) (arbitrary units (background-subtracted, floor 0; scale differs between SH3 domains)); higher = stronger binding of the SH3 domain to the peptide
Assay Endpoint: SPOT peptide array binding signal intensity

> print(dat)
            binder  endpoint.value
1  RRARRQMGIPTISQV             806
2  LYEAMPPTLPHRDWK             806
3  LLLLFVPDSPYDPAI             ≤ 0
4  MAMRPIPPLPTESEY            1410
